- tested.on: hD3 (D3R) (Homo sapiens)
- Sequence (P35462 whole entry): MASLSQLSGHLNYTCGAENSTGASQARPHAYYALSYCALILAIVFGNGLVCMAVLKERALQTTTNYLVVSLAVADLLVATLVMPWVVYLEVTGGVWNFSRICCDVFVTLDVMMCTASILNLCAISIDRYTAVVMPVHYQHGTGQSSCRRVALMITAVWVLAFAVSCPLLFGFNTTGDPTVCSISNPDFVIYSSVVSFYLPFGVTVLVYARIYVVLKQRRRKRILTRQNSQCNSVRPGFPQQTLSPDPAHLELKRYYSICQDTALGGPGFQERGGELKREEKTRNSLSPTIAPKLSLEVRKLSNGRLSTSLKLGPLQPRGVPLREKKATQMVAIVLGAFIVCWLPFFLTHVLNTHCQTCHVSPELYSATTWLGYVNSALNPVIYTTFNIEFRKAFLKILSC
- assay.text: Quinpirole-induced mitogenesis assay in hD3-transfected CHOp cells
reported.endpoint: EC50

>>> observed("COc1ccc2[nH]c(C(=O)NCCC(F)CN3CCN(c4cccc(Cl)c4Cl)CC3)cc2c1 (stereo not shown)")
"4.9 nM"

###

- tested.on: human D3 dopamine receptor (D3R) (Homo sapiens, UniProt P35462)
- Sequence (P35462 whole entry): as above
- Type: binding
The compounds listed here are annotated with their D3R-selectivity over D2R.
reported.endpoint: D3R-selectivity over D2R

>>> observed("O=C(NCCC(F)CN1CCN(c2cccc(Cl)c2Cl)CC1)c1ccc2c(c1)Cc1ccccc1-2 (stereo not drawn) [Compound 8j]")
"> 1000 fold"
>>> observed("O=C(NCCC(F)CN1CCN(c2cccc(Cl)c2Cl)CC1)c1cc2ccccc2[nH]1 (stereo not drawn) [Compound 8h]")
"> 130 fold"
>>> observed("COc1ccc2[nH]c(C(=O)NCCC(F)CN3CCN(c4cccc(Cl)c4Cl)CC3)cc2c1 (stereo not drawn) [Compound 8n]")
"> 130 fold"
>>> observed("COc1ccccc1N1CCN(CC(F)CCNC(=O)c2cc3ccccc3s2)CC1 (stereo not drawn) [Compound 8k]")
"> 60 fold"
>>> observed("COc1ccc2[nH]c(C(=O)NCCC(F)CN3CCN(c4ccccc4OC)CC3)cc2c1 (stereo not drawn) [Compound 8m]")
"> 60 fold"
>>> observed("O=C(NCCC(F)CN1CCN(c2cccc(Cl)c2Cl)CC1)c1cc2ccccc2s1 (stereo not drawn) [Compound 8l]")
"> 130 fold"
